target.entity: human neutrophil elastase (Homo sapiens, UniProt P08246)
Construct: purchased Serva Electrophoresis, Germany
Sequence (P08246 30-267): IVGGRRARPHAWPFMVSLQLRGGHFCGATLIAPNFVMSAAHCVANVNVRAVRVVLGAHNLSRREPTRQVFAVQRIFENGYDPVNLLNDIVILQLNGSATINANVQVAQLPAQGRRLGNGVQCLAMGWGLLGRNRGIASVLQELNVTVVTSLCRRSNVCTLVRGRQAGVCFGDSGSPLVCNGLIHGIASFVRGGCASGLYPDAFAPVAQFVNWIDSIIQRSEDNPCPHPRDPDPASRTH
test.details: Inhibition of human neutrophil elastase (MeOSuc-AAPV-pNA hydrolysis)
Assay type: biochemical
test.settings: 10 nM enzyme, 0.3 mM substrate, 37° C., pH 8; read-out: Human neutrophil elastase (hNE) IC50
Non-standard residues stand in square brackets, D forms with d. Residues, ends and D or L forms follow the SMILES beside them. hTyr = N[C@@H](CCc1ccc(O)cc1)C(=O)O
Provide the recorded pIC50 for the entries that follow.
Numbers only, as −log10 of the molar value.

compound	pIC50
CC[C@H](C)[C@@H]1NC(=O)[C@H](CO)NC(=O)[C@H](C)NC(=O)[C@H]([C@@H](C)O)NC(=O)[C@H](C(C)C)NC(=O)[C@H](CCCNC(=N)N)NC(=O)[C@@H]2CCCN2C(=O)[C@H]2CCCN2C(=O)[C@H]([C@@H](C)O)NC(=O)[C@H](CCCCN)NC(=O)[C@H](CCC(N)=O)NC(=O)[C@@H]2CCCN2C(=O)[C@@H]2CCCN2C1=O [Example 16] (cyclo(RVTASIPPQKT[dP]P))	7.58

Then this compound:
Query string: Lab note: need pIC50 for CC[C@H](C)[C@@H]1NC(=O)[C@H](CO)NC(=O)[C@H](C)NC(=O)[C@H]([C@@H](C)O)NC(=O)[C@H](CCc2ccc(O)cc2)NC(=O)[C@H](CCCNC(=N)N)NC(=O)[C@@H]2CCCN2C(=O)[C@H]2CCCN2C(=O)[C@H]([C@@H](C)O)NC(=O)[C@H](CCCCN)NC(=O)[C@H](CCC(N)=O)NC(=O)[C@@H]2CCCN2C(=O)[C@@H]2CCCN2C1=O [Example 17] (cyclo(R[hTyr]TASIPPQKT[dP]P)) on human neutrophil elastase (Homo sapiens, UniProt P08246), anyone have it?
Result string: 7.81

* * *

target.entity: human proteinase 3 (Homo sapiens, UniProt P24158)
Construct: purchased Elastin Products Company, USA
Sequence (P24158 28-248): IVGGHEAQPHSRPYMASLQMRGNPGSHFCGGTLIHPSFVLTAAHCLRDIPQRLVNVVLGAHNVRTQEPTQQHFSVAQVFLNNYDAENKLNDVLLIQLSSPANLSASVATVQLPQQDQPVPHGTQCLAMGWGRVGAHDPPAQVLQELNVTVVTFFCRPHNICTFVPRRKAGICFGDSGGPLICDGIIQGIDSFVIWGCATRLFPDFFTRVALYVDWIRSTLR
test.details: Inhibition of human proteinase 3 (Boc-Ala-Ala-Nva-SBzl)
Type: biochemical
test.settings: 10 nM enzyme, 1 mM substrate, 37° C., pH7.4; read-out: Human proteinase 3 (hPr3) IC50
Non-standard residues stand in square brackets, D forms with d. Residues, ends and D or L forms follow the SMILES beside them. hLeu = CC(C)CC[C@H](N)C(=O)O
measurement.name: IC50

Query string: What value of measured IC50 is listed for CC[C@H](C)[C@@H]1NC(=O)[C@H](CO)NC(=O)[C@H](C)NC(=O)[C@H]([C@@H](C)O)NC(=O)[C@H](CCC(=O)O)NC(=O)[C@H](CCCNC(=N)N)NC(=O)[C@@H]2CCCN2C(=O)[C@H]2CCCN2C(=O)[C@H](CCC(C)C)NC(=O)[C@H](CCCCN)NC(=O)[C@H](CCC(N)=O)NC(=O)[C@@H]2CCCN2C(=O)[C@@H]2CCCN2C1=O [Example 10] (cyclo(RETASIPPQK[hLeu][dP]P)) ?
Result string: > 100 µM
